Experiment: yeast display, Sf9 membrane polyspecificity reagent, FACS + sequencing; frameworks hold sequencing errors

>  <sequence-data>
QVQLVESGGGLVQAGGSLRLSCAASGRIFGSNAMGWYRQAPAKERELVAAITFRTASTYYADSVKGRFTISRDNAKNTVYLQMNSLKPEDTSVYSCNADKFSAPPLYEYEYWGQGTQVTVSS

>  <polyreactivity (PSR sort gate)>
low polyreactivity

$$$$
>  <sequence-data>
QVQLVESGGGLVQAGGSLRLSCAASGFIFQRYAMGWYRQAPGKERELVAAISWSGGITYYADSVKGRFTISRDNAKNTVYLQMNSLKPEDTAVYYCAAGLAVGDYYWGQGTQVTVSS

>  <polyreactivity (PSR sort gate)>
high polyreactivity

$$$$
>  <sequence-data>
QVQLVESGGGLVQAGGSLRLSCAASGRTFPKYAMGWYRQAPGKERELVAAITWRASRTYYADSVKGRFTISRDYAKITVYLQMNSLKPEDTAVYYCAAKGVGQAPKRDYWGQGTQVNVSS

>  <polyreactivity (PSR sort gate)>
high polyreactivity

$$$$
>  <sequence-data>
QVQLVEKGGGLVQAGGSLRLSCAASGRTFQYYAMGWYRQAPGNERELVAAINQGGGRTYYADSVKGRFTISRDNAKNTVYLQMNSLKPEDTAVYYCAADGLSKFDYWGQGTQVTVSS

>  <polyreactivity (PSR sort gate)>
low polyreactivity

$$$$
>  <sequence-data>
QVQLVESGGGLVQAGGSLRLSCAASGSTFGYYAMGWYRQAPGKERELVAAISYIGGSTYYADSVKGRFTISRDNANNTDYLQMNSQKPEDTAVYYCAAQYVTYAYDYWGQGTQVTVSS

>  <polyreactivity (PSR sort gate)>
low polyreactivity

$$$$

* * *

Experiment: yeast display, Sf9 membrane polyspecificity reagent, FACS + sequencing; frameworks hold sequencing errors
endpoint-name: polyreactivity (PSR sort gate)

>  <sequence-data>
QVQLVESGGGLVQAGGSLRLSCAASGSIFAPYAMGWYRQAPGKERELVATIRTTGDSTYYADSVKGRFTISRDNAKNTVYLQMNSLKPEDTAVYYCAAQQGVISRGNYWGQGTQVTVSS

>  <endpoint-name>
polyreactivity (PSR sort gate)

>  <result-value>
low polyreactivity

$$$$
>  <sequence-data>
QVQLVESVGGLVQAGGSLRLSCAASGRIFAPYAMGWYRQAPGKERELVAAIRWRGGSTSYADSVKGRFTISRDNAKNTVYLQMNSLKPEDTAVYYCNADYGFSFYWYDYWGQGTQVTVSS

>  <endpoint-name>
polyreactivity (PSR sort gate)

>  <result-value>
low polyreactivity

$$$$

* * *

Assay: yeast display, Sf9 membrane polyspecificity reagent, FACS + sequencing; frameworks hold sequencing errors

>  <sequence-data>
QVQLVESGGGLVQAGGSLRLSCAASGFIFYSYAMGWYRQAPGKEREFVASISGRTGSTYYADSVKGRFTISRDNAKNTVYLQMNSLKPEDTAVYYCNARIVHSFRYDYWGQGTQVTVSS

>  <polyreactivity (PSR sort gate)>
low polyreactivity

$$$$
>  <sequence-data>
QVQLVESGGGLVQAGGSLRLSCAASGLTFDWYAMGWYRQAPGKERELVAAITSVGSTYYADSVKGRFTISRDNAKNTVYLQMNSLKPEDTAVYYCAVEGVMWSFWPYEYWGQGTQVTVSS

>  <polyreactivity (PSR sort gate)>
high polyreactivity

$$$$
>  <sequence-data>
QVQIVESGGGLVQAGGSLRLSCAASGSIFARMAMGWYRQAPGKEWELVAAITTGGITNYADSLKGLFTISRDNAKNTVYLQMNSLKPDDTAVYYCAATSWRYQQSTRYKGRRYYSWGQGTQVTVSS

>  <polyreactivity (PSR sort gate)>
high polyreactivity

$$$$
>  <sequence-data>
QVQLVESGGGLVQAGGSLRLSCAASGRIFSVYAMGWSRQAPGKERELVATIRWGGGSTYYADSVKGRFTISRDNAKNTVYLQMNSLKPEDTAVYYCAAGWRGGRYRYFAYDYWGQGTQVTVSS

>  <polyreactivity (PSR sort gate)>
high polyreactivity

$$$$
>  <sequence-data>
QVQLVESGGGLVQAGGSLRLSCAASGITFVANAMGWYRQAPGKETELVAGITQTGGSTYYADSVKGRFTISRDKAKNTVYLQMNSQKPEDTAVYYCAATYRRLRYGKLYYYWGQGTQVTVSS

>  <polyreactivity (PSR sort gate)>
high polyreactivity

$$$$
>  <sequence-data>
QVQLVESGGGLVQAGGSLRLSCAASGSIISNYVMGWYRQAPGKERELDAAITRRGGRTYYADSVKGRFTISRDNAKNTVYLQMNSLKPEDTAVYYCAAEGYVYTFWDSTDFDYWGQGTQVTVSS

>  <polyreactivity (PSR sort gate)>
high polyreactivity

$$$$
>  <sequence-data>
QDQLVESGGGLVQAGGSLRLSCAASGVTFVTYAMGGSRQAPGKERELVAAITTGGSTNYADSVKGRFTISRDNAKNTVYLQMNSLKPEDTAVYYCAAQRVSVLLFVRHDYWGQGTQVTVSS

>  <polyreactivity (PSR sort gate)>
low polyreactivity

$$$$
>  <sequence-data>
QVQLVESGGGLVQAGGTLRLSCAATGRIFARYAMGWYRQAPGKERELVAAITVSGDNTYYADSVKGRFTISRYNAKNTVYLQMNSLKPEDTAVYYCAVRAVLLFGFFEYDYWGQGTQVTVSS

>  <polyreactivity (PSR sort gate)>
low polyreactivity

$$$$
>  <sequence-data>
QVQLVESGGGLVQAGGSLRLSCAASGLTFRFYTMGWYRQAPGKERELVAAISTSGGSTYYADSVKGRFTISRDNAKNTVYLQMNSLKPEDTAVYYCNAQVWFYYFQSGYDYWGQGTQVTVSS

>  <polyreactivity (PSR sort gate)>
low polyreactivity

$$$$
>  <sequence-data>
QVQLVESGGGLVQAGGSLRLSCAASGRIIYGNTMGWYRQAPGKEREFVATITRSGGSTYYADSVKGRFTISRDNAKNTVYLQMNSLKPEDTAVYYCNAQPSVYYGRWGLNYVYWGQGTQVTVSS

>  <polyreactivity (PSR sort gate)>
high polyreactivity

$$$$
>  <sequence-data>
QVQLVETGGGLVQAGGSLRLSCAASGSIFEYNAMGWYRQAPGKERELVAAISWSSGTTYYADSVKGRFTISRDNAKNSVYLQMNSLKPEDNAVYYCNAGRYGKDSVYWGQVTQVTVSS

>  <polyreactivity (PSR sort gate)>
low polyreactivity

$$$$

* * *

Assay: yeast display, Sf9 membrane polyspecificity reagent, FACS + sequencing; frameworks hold sequencing errors

>  <sequence-data>
QVQLVESGGGLVQAGGSLRLSCAASGPTFLYNAMGWYRQAPGKERELVAAISRSAVSTYYADSVKGRFTISRDNAKNTVYLQINSLKPDDTAVYYCSADYRGRYATYRSYASVLYDYWGQGTQVTVSW

>  <polyreactivity (PSR sort gate)>
low polyreactivity

$$$$
>  <sequence-data>
QVQLVESGGGLVQEGGSLRLSCAASGLIVGQNAMGWYRQAPGKDRELVAAISQRGGTYYADSVKGRFTISRDNAKNTVYLQMNSLKPEDTAVLYCAARVGLQPGRYYLRYDYWGQGTQVTVSS

>  <polyreactivity (PSR sort gate)>
low polyreactivity

$$$$
>  <sequence-data>
QVQLVESAGGLVQAGGSLRLSCAASGFTFVYYVMGWYRQAPGKERELVAAINAGGGSTYYADSVKGRFTISRDNAKNTVYLQMNSLIPEDTAVYYCIARVRVRLGRNWSSYYDWGQCTQVTVSS

>  <polyreactivity (PSR sort gate)>
high polyreactivity

$$$$
>  <sequence-data>
QVQLVESGGGLVQAGGSLRLSCAASGRTFYYYAMGWYRQAPGKERELVAAISSRGGSTYYADSVKGRFTISRDNAKNTVYLQMNSLKPEDTAVYYCAAERYFVLYRYYSYAYYYWGQGTQVTVSS

>  <polyreactivity (PSR sort gate)>
high polyreactivity

$$$$
>  <sequence-data>
QVQLVESGGGLVQAGGSLRLSCAASGRIVRYYTMGWYRQAPGKEREFVAAITLSGGRTYYADSVKGRFTISRDNAKNTVYLQMNSLKPEDTAVYYCAKRYVWGDKRYWQGYDYWGQGTQVSVSS

>  <polyreactivity (PSR sort gate)>
high polyreactivity

$$$$

* * *

Experiment: yeast display, Sf9 membrane polyspecificity reagent, FACS + sequencing; frameworks hold sequencing errors

>  <sequence-data>
QVQLVESGGGLVQAGGSLRLSCAASGSIFYAYAMGWYRQAPGKERELVAVISRGGITNYADSVKGRFTISRDNAKNTVYLQMNSMKPEDTAVYYCAAATSAWGYLRRYGYWGQGTQVTVSS

>  <polyreactivity (PSR sort gate)>
low polyreactivity

$$$$
>  <sequence-data>
QVQLVESGGGLDQAGGSLRLSCAASGITFKSNAMGWYRQAPGKESELVAAISRRASSTYYADSVKGRFTISRDNAKHTVYLQMNSLKPEDTAVYYCNAVLPVYRTNMDYWGQGTQVTVSS

>  <polyreactivity (PSR sort gate)>
high polyreactivity

$$$$
>  <sequence-data>
QVQLVESGGGLVQAGGSLRLSCAASGRIFKTYAMGWYRQAPGKERELVAGISWRGGSTYYADSVKGRFTISRDNAKNTVYLQMNSLKPEDTAVYYCAADDTYTRYDYWGQGTQVTVSS

>  <polyreactivity (PSR sort gate)>
high polyreactivity

$$$$
>  <sequence-data>
QVQLVESGGGLVQAGGSLRLSCAASGRIFNYYAMGWYRQAPGKERELVAAISARGGSTYYADSVKGRFTISRDNAKNTVYLQMNSLKPEDTAVYYCAVSSGSYGYGYWGQGTQVTVSS

>  <polyreactivity (PSR sort gate)>
high polyreactivity

$$$$
>  <sequence-data>
QVQLVEAGGGLVQAGGSLRISCAASGITFLSNAMGWYRQAPGKEMELVAVITIGGSTYYADSVKGRFTISRDNAKNTVFLQLNSLKPEDTAVYYCAVELVAVPDRRFNYWGQGTQVTVSS

>  <polyreactivity (PSR sort gate)>
low polyreactivity

$$$$
